target: BRD9 bromodomain (Homo sapiens (Human), UniProt Q9H8M2); experiment: BRD9 bromodomain TR-FRET competition binding assay; conditions: Table 4; competition with biotinylated ligand, 3 nM Flag-BRD9, 90 minutes
Sequence (Q9H8M2 133-239): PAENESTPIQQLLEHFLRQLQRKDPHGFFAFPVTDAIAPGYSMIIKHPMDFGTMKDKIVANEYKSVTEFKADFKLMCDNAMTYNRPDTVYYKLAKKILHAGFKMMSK
ENDPOINT_LABEL: IC50

// lookup IC50 | system=BRD9 bromodomain (Homo sapiens (Human), UniProt Q9H8M2) | key= COc1cc(-c2cn(C)c(=O)c3cnccc23)cc(OC)c1CN1CC(CCNC(=O)CCOCCOc2ccc3c(c2)C(=O)N(C2CCC(=O)NC2=O)C3=O)C1 (centres unmarked) [Compound D117]
< 10 nM

Quick one: COc1cc(-c2cn(C)c(=O)c3cnccc23)cc(OC)c1CN1CCC2(CC1)CN(C(=O)CCOCCOc1ccc3c(c1)C(=O)N(C1CCC(=O)NC1=O)C3=O)C2 (centres unmarked) [Compound D119]
< 10 nM

Quick one: COc1cc(-c2cn(C)c(=O)c3cnccc23)cc(OC)c1CN1CCC(COC2CCN(C(=O)CCOCCOc3ccc4c(c3)C(=O)N(C3CCC(=O)NC3=O)C4=O)C2)CC1 (centres unmarked) [Compound D124]
< 10 nM

Quick one: COc1cc(-c2cn(C)c(=O)c3cnccc23)cc(OC)c1CN(C)CCCOCCN1CCN(c2ccc3c(c2)C(=O)N(C2CCC(=O)NC2=O)C3=O)CC1 (centres unmarked) [Compound D70, formic acid]
10 to 100 nM

Quick one: COc1cc(-c2cn(C)c(=O)c3cnccc23)cc(OC)c1CN(C)C1CC2CC1CN2C(=O)CCOCCOc1cccc2c1C(=O)N(C1CCC(=O)NC1=O)C2=O (centres unmarked) [Compound D162]
10 to 100 nM

Quick one: COc1cc(-c2cn(C)c(=O)c3cnccc23)cc(OC)c1CN1CCC2(CCN(C(=O)CCOCCOc3ccc4c(c3)C(=O)N(C3CCC(=O)NC3=O)C4=O)CC2)C1 (centres unmarked) [Compound D120]
10 to 100 nM

Quick one: COc1cc(-c2cn(C)c(=O)c3cnccc23)cc(OC)c1CN1CC(S(=O)(=O)NCCOCCOCCNc2cccc3c2C(=O)N(C2CCC(=O)NC2=O)C3=O)C1 (centres unmarked) [Compound D38, formic acid]
< 10 nM

Quick one: COc1cc(-c2cn(C)c(=O)c3cnccc23)cc(OC)c1CN1CCC2(CC1)CC(NC(=O)CCOCCOc1ccc3c(c1)C(=O)N(C1CCC(=O)NC1=O)C3=O)C2 (centres unmarked) [Compound D116]
< 10 nM

Quick one: COc1cc(-c2cn(C)c(=O)c3cnccc23)cc(OC)c1CN(C)CC1CC2(CCN(C(=O)CCOCCOc3cccc4c3C(=O)N(C3CCC(=O)NC3=O)C4=O)CC2)CO1 (centres unmarked) [Compound D109]
< 10 nM

Quick one: COc1cc(-c2cn(C)c(=O)c3cnccc23)cc(OC)c1CN(C)C1CC2CN(C(=O)CCOCCOc3cccc4c3C(=O)N(C3CCC(=O)NC3=O)C4=O)CC2C1 (centres unmarked) [Compound D160]
< 10 nM

Quick one: COc1cc(-c2cn(C)c(=O)c3cnccc23)cc(OC)c1CN1CC2(C1)CN(C(=O)COc1cccc3c1C(=O)N(C1CCC(=O)NC1=O)C3=O)C2 (centres unmarked) [Compound D36]
< 10 nM

###

Biological target: BRD9 bromodomain (Homo sapiens (Human))
Test: BRD9 bromodomain TR-FRET competition binding assay
Settings: Table 4; competition with biotinylated ligand, 3 nM Flag-BRD9, 90 minutes
Protocol: Procedure: His-Flag-BRD9 (P133-K239; Swiss Prot Q9H8M2; SEQ ID NO:1 mgsshhhhhhenlyfq/gdykddddkgslevlfqg/[…] […]) was cloned, expressed, purified, and then treated with TEV protease. Cleaved His tag was removed by purification. The binding of a biotinylated small molecule ligand of BRD9 was assessed via the LANCE® TR-FRET platform (PerkinElmer), and the compounds were assayed for inhibitory activity against this interaction. […]
pIC50: −log10 of the molar value.
Hi there, I'd appreciate the recorded pIC50 for every entry that follows.

What pIC50 value was documented for this compound, COc1cc(-c2cn(C)c(=O)c3cnccc23)cc(OC)c1CN1CCC2(C[C@@H]2NC(=O)CCOCCOc2cccc3c2C(=O)N(C2CCC(=O)NC2=O)C3=O)C1 (some centres unmarked) [Compound D112] ?
> 8.00

Quick one: COc1cc(-c2cn(C)c(=O)c3cnccc23)cc(OC)c1CN1CCCC(OCc2cn(CCCOc3ccc4c(c3)C(=O)N(C3CCC(=O)NC3=O)C4=O)nn2)C1 (centres unmarked) [Compound D151]
> 8.00

Quick one: COc1cc(-c2cn(C)c(=O)c3cnccc23)cc(OC)c1CN(C)CC1CC2(C1)CN(C(=O)CCOCCOc1ccc3c(c1)C(=O)N(C1CCC(=O)NC1=O)C3=O)C2 (centres unmarked) [Compound D174]
7.00 to 8.00

Quick one: COc1cc(-c2cn(C)c(=O)c3cnccc23)cc(OC)c1CN(C)CC1CC2(C1)CN(C(=O)CCOCCOc1cccc3c1C(=O)N(C1CCC(=O)NC1=O)C3=O)C2 (centres unmarked) [Compound D164]
> 8.00

Quick one: COc1cc(-c2cn(C)c(=O)c3cnccc23)cc(OC)c1CN(C)C1CCC2CN(C(=O)CCOCCOc3cccc4c3C(=O)N(C3CCC(=O)NC3=O)C4=O)CC21 (centres unmarked) [Compound D161]
> 8.00

###

molecular target: Nanoluciferase-BRD9 fusion protein (Homo sapiens (Human), UniProt Q9H8M2); assay: SYO1 BRD9 NanoLuc degradation assay; assay type: cell-based; settings: Table 5A; SYO-1 cells expressing 3×FLAG-NLuc-BRD9, 6 hours; read-out: SYO1 BRD9-NanoLuc degradation IC50
Sequence (Q9H8M2 whole entry, the tested form may be a part): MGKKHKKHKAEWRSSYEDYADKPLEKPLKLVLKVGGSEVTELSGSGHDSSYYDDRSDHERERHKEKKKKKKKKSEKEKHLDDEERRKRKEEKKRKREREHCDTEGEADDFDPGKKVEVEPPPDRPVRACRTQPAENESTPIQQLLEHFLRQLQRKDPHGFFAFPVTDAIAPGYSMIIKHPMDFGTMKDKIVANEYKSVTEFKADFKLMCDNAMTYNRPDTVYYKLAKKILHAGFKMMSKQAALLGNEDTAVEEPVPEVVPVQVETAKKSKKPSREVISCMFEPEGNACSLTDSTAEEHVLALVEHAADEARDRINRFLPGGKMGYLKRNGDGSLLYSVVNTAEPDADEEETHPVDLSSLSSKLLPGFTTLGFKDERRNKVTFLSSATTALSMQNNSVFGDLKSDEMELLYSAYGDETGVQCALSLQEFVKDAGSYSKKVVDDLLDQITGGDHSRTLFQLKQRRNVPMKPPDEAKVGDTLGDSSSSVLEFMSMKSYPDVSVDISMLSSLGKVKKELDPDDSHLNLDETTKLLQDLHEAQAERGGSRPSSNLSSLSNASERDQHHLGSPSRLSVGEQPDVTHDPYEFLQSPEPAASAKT
ENDPOINT_LABEL: DC50

What DC50 value was documented for this compound, COc1cc(-c2cn(C)c(=O)c3cnccc23)cc(OC)c1CN1CC(NC(=O)CCCCCOc2cccc3c2C(=O)N(C2CCC(=O)NC2=O)C3=O)C1 (stereo not shown) [Compound D5] ?
10 to 100 nM

Quick one: COc1cc(-c2cn(C)c(=O)c3cnccc23)cc(OC)c1CN1CC(C(=O)NCCS(=O)(=O)CCNc2cccc3c2C(=O)N(C2CCC(=O)NC2=O)C3=O)C1 (stereo not shown) [Compound D30]
10 to 100 nM

Quick one: COc1cc(-c2cn(C)c(=O)c3cnccc23)cc(OC)c1CN(C)CC(=O)N1CCC(C2CCN(C(=O)COc3cccc4c3C(=O)N(C3CCC(=O)NC3=O)C4=O)CC2)CC1 (stereo not shown) [Compound D2]
10 to 100 nM

Quick one: COc1cc(-c2cn(C)c(=O)c3cnccc23)cc(OC)c1CN1CC(CC(=O)N2CCC3(CC2)CN(c2ccc4c(c2)C(=O)N(C2CCC(=O)NC2=O)C4=O)C3)C1 (stereo not shown) [Compound D76]
< 10 nM

###

Hi there, I'd appreciate the recorded pIC50 for every entry that follows.
target: Nanoluciferase-BRD9 fusion protein (Homo sapiens (Human)); experiment: SYO1 BRD9 NanoLuc degradation assay; format: cell-based; settings: Table 5A; SYO-1 cells expressing 3×FLAG-NLuc-BRD9, 6 hours
pIC50: −log10 of the molar value.

// lookup pIC50 | system=Nanoluciferase-BRD9 fusion protein (Homo sapiens (Human)) | key= COc1cc(-c2cn(C)c(=O)c3cnccc23)cc(OC)c1CN1CCC2CCN(C(=O)CCOCCOc3ccc4c(c3)C(=O)N(C3CCC(=O)NC3=O)C4=O)CC21 (stereo not drawn) [Compound D123]
> 8.00

Quick one: COc1cc(-c2cn(C)c(=O)c3cnccc23)cc(OC)c1CN1CC[C@H]1C(=O)NCCN(C)CCNC(=O)COc1ccc2c(c1)C(=O)N(C1CCC(=O)NC1=O)C2=O (stereo partly drawn) [Compound D26]
< 6.00

Quick one: COc1cc(-c2cn(C)c(=O)c3cnccc23)cc(OC)c1CN1CC(C(=O)N(C)CCCCCCCCNc2cccc3c2C(=O)N(C2CCC(=O)NC2=O)C3=O)C1 (stereo not drawn) [Compound D14]
> 8.00

###

target: Nanoluciferase-BRD9 fusion protein (Homo sapiens (Human), UniProt Q9H8M2); assay: SYO1 BRD9 NanoLuc degradation assay; assay type: cell-based; details: Table 5A; SYO-1 cells expressing 3×FLAG-NLuc-BRD9, 6 hours
Hi there, I'd appreciate the recorded IC50 for every entry that follows.

// lookup IC50 | system=Nanoluciferase-BRD9 fusion protein (Homo sapiens (Human), UniProt Q9H8M2) | key= COc1cc(-c2cn(C)c(=O)c3cnccc23)cc(OC)c1CN(C)CC1CC2(CCN(C(=O)CCOCCOc3ccc4c(c3)C(=O)N(C3CCC(=O)NC3=O)C4=O)CC2)C1 (centres unmarked)
10 to 100 nM

Quick one: COc1cc(-c2cn(C)c(=O)c3cnccc23)cc(OC)c1CN1CC2C1CCN2C(=O)CCOCCOc1cccc2c1C(=O)N(C1CCC(=O)NC1=O)C2=O (centres unmarked)
< 10 nM

Quick one: COc1cc(-c2cn(C)c(=O)c3cnccc23)cc(OC)c1CN(C)CC1CC2(C1)CN(C(=O)CCOCCOc1ccc3c(c1)C(=O)N(C1CCC(=O)NC1=O)C3=O)C2 (centres unmarked)
100 to 1000 nM

Quick one: COc1cc(-c2cn(C)c(=O)c3cnccc23)cc(OC)c1CN1CCC12CCN(C(=O)CCOCCOc1cccc3c1C(=O)N(C1CCC(=O)NC1=O)C3=O)C2 (centres unmarked)
100 to 1000 nM

Quick one: COc1cc(-c2cn(C)c(=O)c3cnccc23)cc(OC)c1CN1CCC12CN(C(=O)CCOCCOc1ccc3c(c1)C(=O)N(C1CCC(=O)NC1=O)C3=O)C2 (centres unmarked)
100 to 1000 nM
